Assay: Log P determination by HPLC method (OECD guideline 117)
Type: physicochemical
Conditions: octanol/water; read-out: log P (±0.5)
quantity: chromatographic logP

What value of chromatographic logP has been recorded for this entry: CCC(=O)N1CCC(NC(=O)Nc2cccnc2)CC1 [Compound 9] < 0

###

Experiment: Pharmacokinetic screening of selected haloalkyl-phenyl ureas, blood profiles
Assay type: in vivo
Conditions: whole blood
quantity: AUC (µM·h)
// units = µM·h; emit number, no label

Some entries whose results are on file:
CCCCS(=O)(=O)N1CCC(NC(=O)Nc2ccc(C(F)(F)F)cc2)CC1 = 15.5
CCC(C)C(=O)N1CCC(NC(=O)Nc2ccc(C(F)(F)F)cc2)CC1 (stereo not shown) = 3.9
O=C(Nc1ccc(C(F)(F)F)cc1)NC1CCN(S(=O)(=O)C2CC2)CC1 = 167

Read the next record carefully.
What value of AUC has been recorded for this entry: O=C(Nc1ccc(C(F)(F)F)cc1)NC1CCN(C(=O)C2CC2)CC1 170

###

Listed below: Cmax values for each entry.
Experiment: Pharmacokinetic screening of selected haloalkyl-phenyl ureas, blood profiles
Type: in vivo
Conditions: whole blood
// units = µM; emit number, no label

CCCCS(=O)(=O)N1CCC(NC(=O)Nc2ccc(C(F)(F)F)cc2)CC1 = 1.7
O=C(Nc1ccc(C(F)(F)F)cc1)NC1CCN(C(=O)C2CC2)CC1 = 10.2
CCC(C)C(=O)N1CCC(NC(=O)Nc2ccc(C(F)(F)F)cc2)CC1 (stereo not shown) = 4

What value of Cmax has been recorded for this entry: O=C(Nc1ccc(C(F)(F)F)cc1)NC1CCN(S(=O)(=O)C2CC2)CC1 10.9

###

Listed below: half-life values for each entry.
Assay: Pharmacokinetic screening of selected haloalkyl-phenyl ureas, blood profiles
Format: in vivo
Conditions: whole blood

Some entries whose results are on file:
O=C(Nc1ccc(C(F)(F)F)cc1)NC1CCN(S(=O)(=O)C2CC2)CC1 = 714 min
O=C(Nc1ccc(C(F)(F)F)cc1)NC1CCN(C(=O)C2CC2)CC1 = 636 min
CCCCS(=O)(=O)N1CCC(NC(=O)Nc2ccc(C(F)(F)F)cc2)CC1 = 270 min

Read the next record carefully.
What value of half-life has been recorded for this entry: CCC(C)C(=O)N1CCC(NC(=O)Nc2ccc(C(F)(F)F)cc2)CC1 (stereo not shown) 150 min

###

Target: Human sEH (Homo sapiens (Human), UniProt P34913)
Sequence (P34913 whole entry): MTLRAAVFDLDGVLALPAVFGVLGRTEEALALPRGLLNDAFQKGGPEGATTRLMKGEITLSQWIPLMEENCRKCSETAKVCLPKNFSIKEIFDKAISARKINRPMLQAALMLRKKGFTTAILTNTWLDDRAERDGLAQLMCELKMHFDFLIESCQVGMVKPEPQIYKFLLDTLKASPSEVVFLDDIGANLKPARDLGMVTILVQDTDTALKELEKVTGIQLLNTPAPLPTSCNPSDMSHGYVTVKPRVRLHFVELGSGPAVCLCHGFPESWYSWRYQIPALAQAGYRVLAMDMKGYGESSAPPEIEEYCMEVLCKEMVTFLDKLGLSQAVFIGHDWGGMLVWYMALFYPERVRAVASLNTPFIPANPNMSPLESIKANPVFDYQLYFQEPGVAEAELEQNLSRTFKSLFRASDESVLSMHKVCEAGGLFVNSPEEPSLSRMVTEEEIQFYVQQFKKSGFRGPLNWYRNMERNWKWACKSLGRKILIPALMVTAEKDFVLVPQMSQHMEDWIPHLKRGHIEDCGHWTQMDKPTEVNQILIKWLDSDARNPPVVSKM
Test: fluorescent based IC50 assay (CMNPC substrate), recombinant human sEH
Conditions: read-out: IC50 (nM) Human; homogenous recombinant human sEH 1 nM, CMNPC 5 μM, pH 7.0, 30° C., average of three replicates
quantity: log10 IC50 (log10 of the value in nM)
Heads up, the numbers here are log10 of IC50 in nM units.

O=C(Nc1ccc(OC(F)(F)F)cc1)NC1CCN(C(=O)c2ccncc2)CC1 = -0.15
CCCCCCCCNC(=O)NC1CCN(C(=O)CC)CC1 = 0.51
CCC(=O)N1CCC(NC(=O)Nc2ccccc2)CC1 = 2.11
CCC(=O)N1CCC(NC(=O)Nc2cccc(F)c2)CC1 = 1.59
CCC(=O)N1CCC(NC(=O)Nc2ccc(C(C)C)cc2)CC1 = 0.45
CCC(=O)N1CCC(NC(=O)NC2CCCCC2)CC1 = 1.08
CCC(=O)N1CCC(NC(=O)Nc2ccc(Cl)c(Cl)c2)CC1 = 0.53
CCC(=O)N1CCC(NC(=O)Nc2cccc(Cl)c2)CC1 = 1.32
CC(=O)N1CCN(CC(=O)N2CCC(NC(=O)Nc3ccc(OC(F)(F)F)cc3)CC2)CC1 = -0.30
O=C(Nc1ccc(OC(F)(F)F)cc1)NC1CCN(C(=O)c2cc(O)c(O)c(O)c2)CC1 = -0.30

What value of log10 IC50 has been recorded for this entry: CCC(=O)N1CCC(NC(=O)Nc2cc(Cl)cc(Cl)c2)CC1 -0.40

Input CCC(=O)N1CCC(NC(=O)Nc2ccccc2F)CC1 2.48

Input CCC(=O)N1CCC(NC(=O)Nc2ccccc2Cl)CC1 3.04

Input CS(=O)(=O)N1CCC(NC(=O)Nc2ccc(OC(F)(F)F)cc2)CC1 0.46

Input CCC(=O)N1CCC(NC(=O)Nc2ccc(C(F)(C(F)(F)F)C(F)(F)F)cc2)CC1 -0.40

Input CCC(=O)N1CCC(NC(=O)Nc2ccc(Oc3ccccc3)cc2)CC1 0.54

Input CCC(=O)N1CCC(NC(=O)Nc2cccnc2)CC1 3.58

Input O=C(Nc1ccc(OC(F)(F)F)cc1)NC1CCN(C(=O)c2ccc(Cl)nc2)CC1 -0.22

Input O=C(Nc1ccc(OC(F)(F)F)cc1)NC1CCN(C(=O)Cc2ccccn2)CC1 0.49

###

Target: murine sEH (Mus musculus (Mouse), UniProt P34914)
Sequence (P34914 whole entry): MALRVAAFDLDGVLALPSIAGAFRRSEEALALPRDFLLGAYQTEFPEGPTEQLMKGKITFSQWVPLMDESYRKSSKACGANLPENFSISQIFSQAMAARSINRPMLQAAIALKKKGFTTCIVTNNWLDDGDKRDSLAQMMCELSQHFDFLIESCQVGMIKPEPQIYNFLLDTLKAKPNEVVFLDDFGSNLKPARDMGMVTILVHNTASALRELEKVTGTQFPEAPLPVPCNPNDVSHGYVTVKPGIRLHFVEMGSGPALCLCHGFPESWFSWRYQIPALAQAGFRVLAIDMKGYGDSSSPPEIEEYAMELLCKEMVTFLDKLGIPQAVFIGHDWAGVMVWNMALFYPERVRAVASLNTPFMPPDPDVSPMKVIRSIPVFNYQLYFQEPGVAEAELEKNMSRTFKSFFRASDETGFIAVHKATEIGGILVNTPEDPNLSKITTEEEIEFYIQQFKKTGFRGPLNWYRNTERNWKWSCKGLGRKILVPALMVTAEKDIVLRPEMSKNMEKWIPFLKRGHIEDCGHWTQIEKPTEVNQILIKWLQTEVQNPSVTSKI
Test: fluorescent based IC50 assay (CMNPC substrate), recombinant murine sEH
Assay type: biochemical
Details: homogenous recombinant murine sEH 1 nM, CMNPC 5 μM, pH 7.0, 30° C., average of three replicates
Listed below: log10 of IC50 values for each entry.
Heads up, the numbers here are log10 of IC50 in nM units.

What value of log10 of IC50 has been recorded for this entry: CS(=O)(=O)N1CCC(NC(=O)Nc2ccc(OC(F)(F)F)cc2)CC1 [Compound 55] 0.30

Input CCS(=O)(=O)N1CCC(NC(=O)Nc2ccc(OC(F)(F)F)cc2)CC1 [Compound 56] -0.15

Input CCC(=O)N1CCC(NC(=O)Nc2ccc(C(F)(C(F)(F)F)C(F)(F)F)cc2C)CC1 [Compound 39] 1.45

Input CCC(=O)N1CCC(NC(=O)Nc2ccccc2Cl)CC1 [Compound 31] 3.46

Input CCC(=O)N1CCC(NC(=O)NC23CC4CC(CC(C4)C2)C3)CC1 [Compound 2] 0.08

Input CCC(=O)N1CCC(NC(=O)NC2CCCCCC2)CC1 [Compound 3] -0.05

Input CCC(=O)N1CCC(NC(=O)Nc2ccc(CC)cc2)CC1 [Compound 13] 0.11

###

Listed below: IC50 values for each entry.
Target: Human sEH (Homo sapiens (Human))
Test: fluorescent based IC50 assay (CMNPC substrate), recombinant human sEH
Details: read-out: IC50 (nM) Human; homogenous recombinant human sEH 1 nM, CMNPC 5 μM, pH 7.0, 30° C., average of three replicates
// units = nM; emit number, no label

Some entries whose results are on file:
CCC(=O)N1CCC(NC(=O)Nc2ccc(CC)cc2)CC1 = 8.3
CCC(=O)N1CCC(NC(=O)Nc2ccc3ccccc3c2)CC1 = 3
O=C(Nc1ccc(OC(F)(F)F)cc1)NC1CCN(S(=O)(=O)c2ccccc2)CC1 = 1.8

Request - read-out IC50 | tested on Human sEH (Homo sapiens (Human)) | compound CCC(=O)N1CCC(NC(=O)Nc2ccc(Br)cc2)CC1 3.6

Input CCC(=O)N1CCC(NC(=O)Nc2ccc(I)cc2)CC1 7.2

###

Listed below: IC50 values for each entry.
Target: murine sEH (Mus musculus (Mouse), UniProt P34914)
Test: fluorescent based IC50 assay (CMNPC substrate), recombinant murine sEH
Assay type: biochemical
Settings: homogenous recombinant murine sEH 1 nM, CMNPC 5 μM, pH 7.0, 30° C., average of three replicates
// units = nM; emit number, no label

CCC(=O)N1CCC(NC(=O)Nc2ccc(Br)cc2)CC1 = 15
CCC(=O)N1CCC(NC(=O)Nc2ccc(O)cc2)CC1 = 1400

What value of IC50 has been recorded for this entry: CCC(=O)N1CCC(NC(=O)Nc2ccc(N3CCOCC3)cc2)CC1 650

Input CCCCCCCCNC(=O)NC1CCN(C(=O)CC)CC1 0.4

Input CCC(=O)N1CCC(NC(=O)Nc2cccc(C(F)(F)F)c2)CC1 8.8

Input CCC(=O)N1CCC(NC(=O)Nc2ccccc2F)CC1 780

Input CCC(=O)N1CCC(NC(=O)Nc2ccc(C(F)(F)F)cc2)CC1 6.5

###

Molecular target: Human sEH (Homo sapiens (Human), UniProt P34913)
Assay: fluorescent based IC50 assay (CMNPC substrate), recombinant human sEH;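 also: enzyme preincubated with inhibitor for 5 min before adding substrate, in 25 mM Bis-Tris/HCl buffer supplemented with 0.1 mg/mL BSA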
Conditions: read-out: IC50 (nM) Human; homogenous recombinant human sEH 1 nM, CMNPC 5 μM, pH 7.0, 30° C., average of three replicates
quantity: log10(IC50) (log10 of the value in nM)
Heads up, the numbers here are log10 of IC50 in nM units.

CCC(=O)N1CCC(NC(=O)Nc2ccc(C(=O)O)cc2)CC1 [Compound 22] = 2.52
CCC(=O)N1CCC(NC(=O)Nc2ccc(C(F)(C(F)(F)F)C(F)(F)F)cc2C)CC1 [Compound 39] = 1.23
CCC(=O)N1CCC(NC(=O)Nc2ccc(OC)cc2)CC1 [Compound 15] = 1.94
CCC(=O)N1CCC(NC(=O)Nc2ccccc2C)CC1 [Compound 10] = 3.23
CCC(=O)N1CCC(NC(=O)Nc2ccc(Cl)c(C(F)(F)F)c2)CC1 [Compound 35] = 0.61
CCC(=O)N1CCC(NC(=O)Nc2cccc(C)c2)CC1 [Compound 11] = 1.60
CCC(=O)N1CCC(NC(=O)Nc2cccc(C(F)(F)F)c2)CC1 [Compound 37] = 1.23

Read the next record carefully.
What value of log10(IC50) has been recorded for this entry: CCC(=O)N1CCC(NC(=O)NC2CCCCCC2)CC1 [Compound 3] 0.59
